System: tubulin
Construct: with alpha/beta-tubulin heterodimer
EXPERIMENTAL DETAILS: in vitro tubulin polymerisation assay; supported by immunofluorescence of microtubules in HepG2 cells
Format: biochemical
ENDPOINT LABEL: IC50
Reply with the number, then its unit.

Incoming: Item under review: "COc1ccc(CN(C(=O)CSC(=S)N2CCCCC2)c2cc(OC)c(OC)c(OC)c2)cc1" . Reported IC50?
Outgoing: 2400 nM

* * *

Test system: tubulin
Construct: with alpha/beta-tubulin heterodimer
EXPERIMENTAL DETAILS: in vitro tubulin polymerisation assay
Format: biochemical
ENDPOINT LABEL: IC50

Incoming: Item under review: COc1ccc(CN(C(=O)CSC(=S)N2CC(C)CC(C)C2)c2cc(OC)c(OC)c(OC)c2)cc1 (stereo not shown) . Reported IC50?
Outgoing: > 4 µM
